This listing pairs compounds with measured melting point.

// solved cases for melting point follow
In [3]: df
Out[3]:
                                   compound  endpoint_result
0  CCCCN(CCCC)C(=O)c1c(C)n(CCc2ccccc2)c2cc(C(=O)CC)c(O)c(CN3CCCCC3)c12    111 to 112 °C
1                     CCCCCCCC(=O)NCc1ccsc1      71 to 72 °C
2  CC(=O)N1CCC2(CC1)C(=O)NC(=O)N2c1ccc(C)cc1    295 to 297 °C
3  CCc1cc(-c2ccc(F)cc2)c(O)cc1OC(CC)Oc1cc(NC(=O)CCCC(=O)N2CCOCC2)ccc1CCC(=O)O (stereo not given)      78 to 80 °C

Ask: Name the reported melting point value associated with the compound COc1ccc(CC(=O)NCCc2cccc3c2OCO3)cc1OC
Result: 124 °C

Ask: Any idea what melting point was measured for COC(=O)c1nsc2nccn12 ?
Result: 164 to 165 °C

Ask: Recorded melting point for CCc1cc(C(=O)O)c(S(N)(=O)=O)o1 , please?
Result: 186 °C

Ask: I have this compound here, CC(C)Cn1c(=O)n(C)c(=O)c2c(Sc3cccs3)c(C(=O)c3cccnc3)sc21 , and I need its recorded melting point.
Result: 111 to 115 °C

Ask: For Cc1cc(Br)cnc1CCCCNc1nccc(=O)[nH]1 , what is its reported melting point?
Result: 109 to 113 °C

Ask: Bench note: what melting point did OCCC1c2ccccc2-c2ccccc21 show?
Result: 97 °C

###

Listing: melting point of selected compounds

>>> print(df.to_string())
                        compound  endpoint_result
0  Cc1nc2cccc(OCc3ccccc3)c2[nH]1    119 to 121 °C

Ask: Could you share which melting point value was measured for COC1CSC2=C(SC1)C(OC(=O)N1CCN(C)CC1)N(c1ccc3ccc(Cl)cc3n1)C2=O (stereo not given) ?
Result: 228 °C

Ask: Which melting point is reported for this compound? CCOC(=O)c1c(-c2ccc(N3CCN(C)CC3)cc2)n(C)n(-c2ccc(C#N)cc2)c1=O
Result: 278 to 280 °C

Ask: What melting point value was documented for this compound, CC12CCC(OC(=O)c3ccccc3)CC1=CCC1C2CCC2(C)C(=NO)CCC12 (stereo not given) ?
Result: 165 to 170 °C

Ask: Given the compound N=C(NO)c1ccc(-c2cccc(-c3nc4ccc(C(=N)NO)cc4[nH]3)n2)cc1 , what is its reported melting point?
Result: > 290 °C

###

melting point values by entry

Please review the following examples before continuing.
>>> print(df.to_string())
                                   molecule         metric  endpoint_result
0  CC(=O)OCC1OC(n2c(Cl)nc3ccc(Cl)cc32)C(OC(C)=O)C1OC(C)=O (stereo not given)  melting point    155 to 157 °C
1  CCOC(=O)Cc1c(-c2ccc(Cl)cc2)nn(-c2ccccc2)c1-c1ccc(Cl)cc1  melting point    120 to 122 °C
2  O=[N+]([O-])c1cc(Br)c(NS(=O)(=O)c2ccccc2)cc1Br  melting point           148 °C
3               CC(=O)N1C(C)(C)CC(O)CC1(C)C  melting point    102 to 104 °C
4  N[C@@H](Cc1ccc(C(F)(F)F)cc1)[C@H](O)c1ccc(F)c(F)c1 (racemic)  melting point     99 to 100 °C
5             Cc1nc(-c2ccc(O)cc2)c(C(C)C)s1  melting point           165 °C
6  CS(=O)C(c1ccc(Cl)cc1)c1ccc(Cl)cc1 (stereo not given)  melting point           110 °C
7  C#CC1=CCC2C3CCC4=CC(=O)CCC4C3CCC12C (stereo not given)  melting point    148 to 152 °C
8  COc1ccc(Cc2cnc(N)nc2N)cc1OCCNS(=O)(=O)c1ccc(N)cc1  melting point    207 to 208 °C
9          CC(=O)c1ccc(CCC(=O)O)c(C(=O)O)c1  melting point            76 °C

Please find the next molecule below.
Ask: Returns the measured melting point for the input molecule. Input: Cc1ccc(COCc2c(C(C)C)cc(C(C)C)c(C(C)O)c2-c2ccc(F)cc2)cc1 (single isomer, unassigned; (+))
Result: 84 to 86 °C

###

metric: melting point

Worked cases, answers included:
In [3]: df
Out[3]:
                                   compound         metric  endpoint_result
0  CCCNc1nc(NCc2ccc(NC(=O)c3ccc(F)cc3)cc2)c2ccc(C)cc2n1  melting point    170 to 174 °C
1               O=C(NCC1CCCCCC1)NCC1CCCCCC1  melting point    106 to 108 °C
2                 COc1cccc2sc(NC(=O)CO)nc12  melting point    193 to 195 °C
3  CS(=O)(=O)c1ccc(C(CC2CCCC2)C(=O)Nc2nc3ccccc3s2)cc1C#N (stereo not given)  melting point    115 to 118 °C
4   CCOc1nc2c(nc1C(=O)N1CCN(C)CC1)c(C)nn2CC  melting point    111 to 112 °C
5               C#CCOc1c(Cl)cc(Cl)cc1C(=O)O  melting point    163 to 164 °C
6  Cn1c(-c2ccc(F)cc2)cc(=O)c(C(=O)O)c1-c1ccc(F)cc1  melting point    191 to 193 °C
7  Cc1cc(C2(C(F)(F)F)CC(c3ccc(S(C)=O)cc3)=NO2)ccc1N (stereo not given)  melting point    68.5 to 77 °C

Ask: State the recorded melting point for this entry: NS(=O)(=O)c1cc2[nH]c(-c3ccccc3)nc2cc1Cl
Result: 314 to 316 °C

Ask: Request the reported melting point associated with CCCCCCCCCOc1ccnc(C(=O)O)c1
Result: 89 to 92 °C

###

Below, each entry is listed with its recorded melting point.

For orientation, consider the following solved cases.
In [3]: df
Out[3]:
                                   compound         metric  endpoint_result
0        CNc1nc(N2CCN(Cc3ccccc3)CC2)ncc1CCO  melting point    119 to 120 °C
1  CCC(CO)(CO)Nc1ncc2cc(Oc3ccc(F)cc3F)ccc2n1  melting point    110 to 113 °C
2  CCCNC(=O)C(C)Cc1ccc2c(c1)c(Cc1ccc(C(=O)NS(=O)(=O)c3ccccc3C)cc1OC)cn2CCC(=O)N(C)C (stereo not given)  melting point    120 to 132 °C

Ask: I'd like to know its melting point. The compound in question is COc1ccc(-c2[nH]nc3c2C(=O)c2c(NC(=O)CN4CCC(N)CC4)cccc2-3)cc1
Result: > 300 °C

Ask: Could you tell me which melting point is on file for COC(=O)CC(=O)Nc1ccccc1COc1ccc(C(C)=O)c(O)c1 ?
Result: 130 to 132 °C

Ask: What does the record list as melting point for CC1(C)CC2(NC(=O)NC2=O)c2ccccc2O1 (stereo not given) ?
Result: 233 to 235 °C

###

Entries and their measured melting point follow.

Some molecules with known melting point results, for comparison:
                                   molecule  endpoint_result
0   Cn1ncc(N2CCN(CC=Cc3ccccc3)CC2)c(Cl)c1=O     98 to 100 °C
1  CN(C)C(=O)c1cc(C(=O)O)c2cc(Cc3ccc(F)cc3)cnc2c1O    214 to 216 °C
2  CC[C@@]12C[C@@](C)(O)[C@](O)(c3ccccc3)C[C@H]1CCc1cc(OCC(=O)NCCCC#N)ccc12    185 to 186 °C
3  COC(=O)CCCCCCCn1cc(-c2ccccc2)c(-c2ccccc2)nc1=O      80 to 83 °C
4  Cc1cccc2cc3c(=O)n(CC(F)(F)F)cc(C(=O)NCCN(C)C)c3nc12    227 to 230 °C
5  CCOP(=O)(CC(=O)Nc1c(C(C)C)cccc1C(C)C)NCC(c1ccccc1)c1ccccc1 (stereo not given)    172 to 176 °C
6  Cn1ccnc1Sc1ccc(Nc2c(C#N)cnc3sccc23)cc1Cl         > 240 °C
7  CC(C)(C)c1cc(N2C(=O)c3ccccc3C2=O)cc(C(C)(C)C)c1O    196 to 201 °C

Ask: GET /values?readout=melting point&item= O=C(O)c1cn(O)c2ccc3[nH]c(=O)sc3c2c1=O
Result: > 300 °C

Ask: Item under review: CC(C)[Si](C#Cc1ccc(-c2nc3cc(C#N)c(C#N)cc3[nH]2)cc1)(C(C)C)C(C)C . Reported melting point?
Result: 347 to 348 °C

Ask: Item O=C1Nc2ccccc2C12CCCCC2 has what recorded melting point?
Result: 164 to 165 °C

Ask: GET /values?readout=melting point&item= O=C(O)/C=C/c1c(C2CC2)nc2ccccc2c1-c1ccc(F)cc1
Result: 173 to 174 °C

Ask: melting point for NCC1COc2cc(F)cc(-c3ccccc3Cl)c2N1 (stereo not given) ?
Result: 86 °C

Ask: Sample CN1CCC(=C2c3ccccc3COc3ccc(C#N)cc32)CC1 — what was its melting point?
Result: 134 to 136 °C

Ask: What value of melting point has been recorded for this entry: Cc1nc2ccc(Cl)cc2c(=O)n1C1CCC(=O)NC1=O (stereo not given)
Result: 276 to 278 °C
